Origin of values: ChEMBL document CHEMBL6178021

Test system: Plasmodium falciparum
assay.comment: microbe, parasite or virus in culture
reported.conditions: Dd2, 72 h
Description: Antiplasmodial activity against asexual blood-stage Plasmodium falciparum Dd2 using 2% haematocrit and 0.2% parasitemia assessed as reduction in fluorescence measured after 72 hrs by Malaria SYBR Green I-based Fluorescence (MSF) assay
Attribute: IC50
Record the value in nM, omitting the unit from your answer.

item_smiles=CCC1=C(C)/C(=C/NC2CCCCC2)N=C1c1ccc(C)[nH]1 reported_property=IC50 value_units=nM result_value=15.7
item_smiles=CCc1ccc(C2=N/C(=C\NC3CCCCCCC3)C(C)=C2C)[nH]1 reported_property=IC50 value_units=nM result_value=3.97
item_smiles=COc1ccc(C2=C(c3ccc(OC)cc3)/C(=C/NC34C[C@H]5C[C@@H](C3)C[C@@H](C4)C5)N=C2c2ccc[nH]2)cc1 reported_property=IC50 value_units=nM result_value=15.3

Then this compound:
Entry `C(/NC1CCCCC1)=C1/N=C(c2ccc[nH]2)C(c2ccccc2)=C1c1ccccc1` ; IC50 = 1280

---

Reported microsomal CLint at 1 h is given for each of the following compounds.
assay.comment: in vitro
reported.conditions: human, liver microsomes
Answer with a number only, understood to be in µL/min/mg.

item_smiles=COC1=C(OC)/C(=C/NC2CCCCC2)N=C1c1ccc[nH]1 value_units=µL/min/mg result_value=94.9

The value of microsomal CLint at 1 h measured for the compound `CCC1=C(CC)/C(=C/NC2CCCCC2)N=C1c1ccc[nH]1` turned out to be 45.5

Input `CCC1=C(CC)/C(=C/NC23C[C@H]4C[C@@H](C2)C[C@@H](C3)C4)N=C1c1cc2cc(OC)ccc2[nH]1` . Output microsomal CLint at 1 h: 6.19

Value of measured microsomal CLint at 1 h for the entry `COC(=O)[C@H]1CC[C@H](N/C=C2\N=C(c3ccc[nH]3)C3=C2CCCC3)CC1` : 82.9

---

Below: a set of entries, each annotated with reported Activity.
Test system: Plasmodium yoelii
assay.comment: Antimalarial activity against erythrocytic Plasmodium yoelii MRA-428 infected in CF1 mouse assessed as reduction in parasitemia at 10 mg/kg, po once daily for 4 days measured on day 5
Format: functional
Design: scale not given: the % may be the effect or the level left
reported.conditions: time 4 day
Quick note: give the figure in %, leave out the unit.

For `CCC1=C(CC)/C(=C/NC23C[C@H]4C[C@@H](C2)C[C@@H](C3)C4)N=C1c1ccc(Cl)[nH]1` the compound record lists Activity as 23.2

What the record says about `CCC1=C(C)/C(=C/NC23C[C@H]4C[C@@H](C2)C[C@@H](C3)C4)N=C1c1ccc(CC)[nH]1` : Activity is 100

Form: compound = `CCC1=C(CC)/C(=C/NC23C[C@H]4C[C@@H](C2)C[C@@H](C3)C4)N=C1c1ccc(Br)[nH]1` ; Activity = 33.1

`C(/NC12C[C@H]3C[C@@H](C1)C[C@@H](C2)C3)=C1/N=C(c2ccc[nH]2)C2=C1OCCO2` has a reported Activity of 0

Form field Activity, entry `CCc1ccc(C2=N/C(=C\NC3CCCCC3)C3=C2CCCC3)[nH]1` : 43.1

// `CCC1=C(CC)/C(=C/NC2CCCCCC2)N=C1c1ccc(-c2ccc(OC)cc2)[nH]1` : Activity value = 4.62

According to the records, this compound `CCC1=C(CC)/C(=C/NC23C[C@H]4C[C@@H](C2)C[C@@H](C3)C4)N=C1c1cc2cc(OC)ccc2[nH]1` displays Activity of 87.2

Per the record, `COC1=C(OC)/C(=C/NC23C[C@H]4C[C@@H](C2)C[C@@H](C3)C4)N=C1c1ccc[nH]1` has Activity of 63.1

# Activity (compound: `CCC1=C(CC)/C(=C/NC2CCCCCC2)N=C1c1ccc(CC)[nH]1` ) is 37.6

Activity in this record for `CCc1ccc(C2=N/C(=C\NC3CCCCCC3)C3=C2OCCO3)[nH]1` : 34.2

Item: `CCC1=C(CC)/C(=C/NC2CCCCC2)N=C1c1ccc(-c2ccccc2)[nH]1` | Activity: 0

Noted for `COC1=C(OC)/C(=C/NC2CCCCC2)N=C1c1ccc[nH]1` : its Activity reads 0

Value of measured Activity for the entry `C(/NC1CCCCC1)=C1/N=C(c2ccc[nH]2)C2=C1OCCO2` : 7.6

Short answer for `C(/NC1CCCCC1)=C1/N=C(c2ccc[nH]2)C2=C1CCCC2` : Activity was 88.8
